Catalogue of compounds with associated solubility kinetic
REPORTED CONDITIONS: buffer; pH 7.4; 200.0 µM

>  <COMPOUND>
CC1CCCC(C)N1C(=O)COC(=O)c1cc(=O)[nH]c2ccccc12 (stereo not drawn)

>  <CENSORING QUALIFIER>
>

>  <solubility kinetic / µg/mL>
51.4

$$$$
>  <COMPOUND>
O=C(Cc1cccs1)NCc1ccc(Cl)cc1

>  <CENSORING QUALIFIER>
=

>  <solubility kinetic / µg/mL>
23.5

$$$$
>  <COMPOUND>
N#Cc1ccc(NC(=O)c2cccs2)nc1

>  <CENSORING QUALIFIER>
>

>  <solubility kinetic / µg/mL>
34.4

$$$$
>  <COMPOUND>
Cc1ccc2ncnc(Nc3ccccc3)c2c1

>  <CENSORING QUALIFIER>
=

>  <solubility kinetic / µg/mL>
11.6

$$$$
>  <COMPOUND>
Cc1cc(NS(=O)(=O)c2ccc3c(c2)OCCO3)no1

>  <CENSORING QUALIFIER>
=

>  <solubility kinetic / µg/mL>
31.2

$$$$
>  <COMPOUND>
C=CCn1c(NCc2ccco2)nc2ccccc21

>  <CENSORING QUALIFIER>
>

>  <solubility kinetic / µg/mL>
38

$$$$
>  <COMPOUND>
Nc1ncnc(Oc2ccccc2F)c1[N+](=O)[O-]

>  <CENSORING QUALIFIER>
=

>  <solubility kinetic / µg/mL>
34.3

$$$$
>  <COMPOUND>
Cc1nnc(NC(=O)CSc2nnc(C)c(=O)n2N)s1

>  <CENSORING QUALIFIER>
>

>  <solubility kinetic / µg/mL>
47

$$$$
>  <COMPOUND>
COc1ccc(CC(=S)NCCc2ccccc2)cc1

>  <CENSORING QUALIFIER>
=

>  <solubility kinetic / µg/mL>
13

$$$$
>  <COMPOUND>
COC(=O)c1sccc1NC(=O)Nc1cc(OC)ccc1OC

>  <CENSORING QUALIFIER>
=

>  <solubility kinetic / µg/mL>
10.3

$$$$
>  <COMPOUND>
N/C(=N\OC(=O)Cc1ccc(Cl)cc1)c1ccncc1

>  <CENSORING QUALIFIER>
=

>  <solubility kinetic / µg/mL>
27.1

$$$$
>  <COMPOUND>
CC(=O)Nc1ccc(C(=O)OCc2ccccc2Br)cc1

>  <CENSORING QUALIFIER>
<

>  <solubility kinetic / µg/mL>
0.7

$$$$
>  <COMPOUND>
CSc1nc(NCC(C)O)c2c3c(sc2n1)CN(C)CC3 (stereo not drawn)

>  <CENSORING QUALIFIER>
=

>  <solubility kinetic / µg/mL>
44.7

$$$$
